The values you see were collected from paper PMC9176245.

Here, each record is paired with measured pKd data.
Biological target: Cbf5;Nop10;Gar1;Nhp2 (Saccharomyces cerevisiae;Saccharomyces cerevisiae;Saccharomyces cerevisiae;Saccharomyces cerevisiae) (UniProt P33322+Q6Q547+P28007+P32495)
Sequence 1: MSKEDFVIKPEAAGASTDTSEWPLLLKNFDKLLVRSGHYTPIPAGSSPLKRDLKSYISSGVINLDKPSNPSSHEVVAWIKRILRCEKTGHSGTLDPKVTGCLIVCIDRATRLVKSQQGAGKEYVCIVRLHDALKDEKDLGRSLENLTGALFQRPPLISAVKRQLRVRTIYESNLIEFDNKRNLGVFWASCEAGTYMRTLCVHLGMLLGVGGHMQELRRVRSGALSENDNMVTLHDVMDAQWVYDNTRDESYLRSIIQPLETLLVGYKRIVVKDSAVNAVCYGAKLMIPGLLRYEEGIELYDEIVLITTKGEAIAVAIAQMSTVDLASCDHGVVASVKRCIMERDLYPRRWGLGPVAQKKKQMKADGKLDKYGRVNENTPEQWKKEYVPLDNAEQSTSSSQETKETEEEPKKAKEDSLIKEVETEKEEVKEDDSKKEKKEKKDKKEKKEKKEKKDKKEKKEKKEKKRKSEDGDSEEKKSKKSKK
Sequence 2: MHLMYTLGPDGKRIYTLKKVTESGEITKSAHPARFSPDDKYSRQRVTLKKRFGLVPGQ
Sequence 3: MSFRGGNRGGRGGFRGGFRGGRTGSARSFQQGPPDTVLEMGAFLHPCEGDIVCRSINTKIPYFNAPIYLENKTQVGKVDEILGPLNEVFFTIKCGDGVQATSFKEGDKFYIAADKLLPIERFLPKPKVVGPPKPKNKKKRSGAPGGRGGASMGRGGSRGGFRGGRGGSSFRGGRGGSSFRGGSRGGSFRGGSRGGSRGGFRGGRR
Sequence 4: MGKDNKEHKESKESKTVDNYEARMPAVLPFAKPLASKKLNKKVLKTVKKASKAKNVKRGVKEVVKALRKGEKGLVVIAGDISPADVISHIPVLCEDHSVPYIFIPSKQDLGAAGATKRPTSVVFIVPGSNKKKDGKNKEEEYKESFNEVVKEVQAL
Experiment: filter binding
Conditions: 20 mM HEPES-KOH pH 7.4, 150 mM NaCl, 1.5 mM MgCl2, 10% glycerol, 30°C, 10 min; nitrocellulose filtration
For clarity, pKd is expressed as the negative log10 of concentration in mol/L.

| input_sequence | pKd |
| --- | --- |
| GGGUUAAUAGGGACGGUCGGGGGCAUCAGUAUUCAAUUGUCAGAGGUGAAAUUCUUGGAUUUAUUGAAGACUAACUACUGCGAAAGCAUUUGCCAAGGACGUUUUC [H22/23] | 7.08 |

Kindly review the next sequence as well.
Quick check: pKd of GGGCCGACUAGGGAUCGGGUGGUGUUUUUUUAAUGACCCACUCGGCACCUUACGAGAAAUCAAAGUCUUUGGGU [H25/26] ?
7.04
